- assay-target: Influenza virus A/Suita/1/2009pdm (H1N1 2009 pandemic) (Influenza A virus A/Suita/1/2009pdm (H1N1pdm))
- protocol-description: cell-based or functional assay
Classify as follows. Reported Neutralizing activity (%) at 100 µg/ml greater than or equal to 90%: fulfilled. Reported Neutralizing activity (%) at 100 µg/ml below: not fulfilled.

Take a look at these entries with their results.
binder: Group 35 representative clone F082-117, Fab-PP-type antibody (Fab, V domains shown) VH: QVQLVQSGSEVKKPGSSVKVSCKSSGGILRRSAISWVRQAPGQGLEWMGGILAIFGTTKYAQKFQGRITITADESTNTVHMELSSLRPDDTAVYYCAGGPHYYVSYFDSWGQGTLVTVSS VL: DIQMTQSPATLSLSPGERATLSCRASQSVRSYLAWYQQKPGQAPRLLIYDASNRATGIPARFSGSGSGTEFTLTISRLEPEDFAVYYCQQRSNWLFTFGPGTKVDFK
class: fulfilled

binder: Group 38 representative clone F082-338, Fab-PP-type antibody (Fab, V domains shown) VH: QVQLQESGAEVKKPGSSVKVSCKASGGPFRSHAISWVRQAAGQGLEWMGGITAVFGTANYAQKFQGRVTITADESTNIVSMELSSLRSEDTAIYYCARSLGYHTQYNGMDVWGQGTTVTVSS VL: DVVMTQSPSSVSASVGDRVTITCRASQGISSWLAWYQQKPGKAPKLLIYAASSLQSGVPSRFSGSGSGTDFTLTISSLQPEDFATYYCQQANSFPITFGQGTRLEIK
class: fulfilled

input: hey, is Neutralizing activity (%) at 100 µg/ml for this one >= 90%? Group 80 representative clone F083-373, Fab-PP-type antibody (Fab, V domains shown) VH: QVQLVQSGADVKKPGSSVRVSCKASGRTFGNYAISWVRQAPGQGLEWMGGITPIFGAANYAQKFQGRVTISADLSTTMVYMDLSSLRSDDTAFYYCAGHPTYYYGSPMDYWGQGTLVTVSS VL: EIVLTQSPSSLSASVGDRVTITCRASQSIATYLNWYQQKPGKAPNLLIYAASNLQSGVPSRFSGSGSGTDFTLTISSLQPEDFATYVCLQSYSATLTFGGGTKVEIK
output: not fulfilled

input: hey, is Neutralizing activity (%) at 100 µg/ml for this one >= 90%? Group 1 representative clone F080-227, Fab-PP-type antibody (Fab, V domains shown) VH: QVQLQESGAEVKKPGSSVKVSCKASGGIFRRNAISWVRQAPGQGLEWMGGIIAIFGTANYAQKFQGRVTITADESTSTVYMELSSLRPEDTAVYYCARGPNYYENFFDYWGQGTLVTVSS VL: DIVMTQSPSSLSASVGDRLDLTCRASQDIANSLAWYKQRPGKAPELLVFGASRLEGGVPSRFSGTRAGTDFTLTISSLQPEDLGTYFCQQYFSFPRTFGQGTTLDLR
output: fulfilled

input: hey, is Neutralizing activity (%) at 100 µg/ml for this one >= 90%? Group 3 representative clone F081-281, Fab-PP-type antibody (Fab, V domains shown) VH: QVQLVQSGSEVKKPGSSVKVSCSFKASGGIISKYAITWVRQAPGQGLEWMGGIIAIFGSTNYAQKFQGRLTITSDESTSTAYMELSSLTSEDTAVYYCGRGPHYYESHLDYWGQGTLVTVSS VL: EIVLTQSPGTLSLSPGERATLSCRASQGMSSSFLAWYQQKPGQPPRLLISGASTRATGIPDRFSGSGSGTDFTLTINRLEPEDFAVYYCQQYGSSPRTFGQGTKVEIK
output: fulfilled
